# percentage of EdU-negative per entry
# System: MCF7;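 note: secreted proteins added to cultured cells, EdU pulse at the end, nuclei found by Hoechst imaging, EdU status from nuclear versus surrounding ring intensity ratio, PBS as neutral control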
# Assay Notes: percentage of EdU-negative (G0-arrested) nuclei per well, 72 h; higher = more G0 arrest
# Particulars: protein concentration 0.0225 µM; reference: sequence is the full UniProt precursor, the tested protein was the secreted form or ectodomain
Reported Property: percentage of EdU-negative

residue_string="MAFLPSWVCVLVGSFSASLAGTSNLSETEPPLWKESPGQLSDYRVENSMYIINPWVYLERMGMYKIILNQTARYFAKFAPDNEQNILWGLPLQYGWQYRTGRLADPTRRTNCGYESGDHMCISVDSWWADLNYFLSSLPFLAAVDSGVMGISSDQVRLLPPPKNERKFCYDVSSCRSSFPETMNKWNTFYQYLQSPFSKFDDLLKYLWAAHTSTLADNIKSFEDRYDYYSKAEAHFERSWVLAVDHLAAVLFPTTLIRSYKFQKGMPPRILLNTDVAPFISDFTAFQNVVLVLLNMLDNVDKSIGYLCTEKSNVYRDHSESSSRSYGNNS [Q6P5S2]" target_desc=MCF7 val=25.7%
residue_string=MEIPVPVQPSWLRRASAPLPGLSAPGRLFDQRFGEGLLEAELAALCPTTLAPYYLRAPSVALPVAQVPTDPGHFSVLLDVKHFSPEEIAVKVVGEHVEVHARHEERPDEHGFVAREFHRRYRLPPGVDPAAVTSALSPEGVLSIQAAPASAQAPPPAAAK target_desc=MCF7 val=27%
residue_string=MVRMVPVLLSLLLLLGPAVPQENQDGRYSLTYIYTGLSKHVEDVPAFQALGSLNDLQFFRYNSKDRKSQPMGLWRQVEGMEDWKQDSQLQKAREDIFMETLKDIVEYYNDSNGSHVLQGRFGCEIENNRSSGAFWKYYYDGKDYIEFNKEIPAWVPFDPAAQITKQKWEAEPVYVQRAKAYLEEECPATLRKYLKYSKNILDRQDPPSVVVTSHQAPGEKKKLKCLAYDFYPGKIDVHWTRAGEVQEPELRGDVLHNGNGTYQSWVVVAVPPQDTAPYSCHVQHSSLAQPLVVPWEAS target_desc=MCF7 val=26.1%
residue_string="MLLLLTLALLGGPTWAGKMYGPGGGKYFSTTEDYDHEITGLRVSVGLLLVKSVQVKLGDSWDVKLGALGGNTQEVTLQPGEYITKVFVAFQAFLRGMVMYTSKDRYFYFGKLDGQISSAYPSQEGQVLVGIYGQYQLLGIKSIGFEWNYPLEEPTTEPPVNLTYSANSPVGR [Q96DA0]" target_desc=MCF7 val=25.5%
residue_string="MLGQVVTLILLLLLKVYQGKGCQGSADHVVSISGVPLQLQPNSIQTKVDSIAWKKLLPSQNGFHHILKWENGSLPSNTSNDRFSFIVKNLSLLIKAAQQQDSGLYCLEVTSISGKVQTATFQVFVFESLLPDKVEKPRLQGQGKILDRGRCQVALSCLVSRDGNVSYAWYRGSKLIQTAGNLTYLDEEVDINGTHTYTCNVSNPVSWESHTLNLTQDCQNAHQEFRFWPFLVIIVILSALFLGTLACFCVWRRKRKEKQSETSPKEFLTIYEDVKDLKTRRNHEQEQTFPGGGSTIYSMIQSQSSAPTSQEPAYTLYSLIQPSRKSGSRKRNHSPSFNSTIYEVIGKSQPKAQNPARLSRKELENFDVYS [Q9BZW8]" target_desc=MCF7 val=25.8%
residue_string=MALRVVRSVRALLCTLRAVPSPAAPCPPRPWQLGVGAVRTLRTGPALLSVRKFTEKHEWVTTENGIGTVGISNFAQEALGDVVYCSLPEVGTKLNKQDEFGALESVKAASELYSPLSGEVTEINEALAENPGLVNKSCYEDGWLIKMTLSNPSELDELMSEEAYEKYIKSIEE target_desc=MCF7 val=25.5%
